- MEASURED_ON: Potassium-transporting ATPase (Sus scrofa) (UniProt P18434+P19156)
- EXPERIMENT_NOTES: Inhibition of procine gastric H+,K+-ATPase at 100 uM in vitro.
- Format: tissue-based
- ASSAY_CONTEXT: Stomach
RECORDED_ENDPOINT: inhibition (%)

1. C[C@]12CCC3=CC(=O)c4ccccc4[C@@]3(CC1)C2
52
2. CO[C@H]1C[C@@H]2C[C@H](O)c3c(C(=O)O)cccc3[C@]23CC[C@@]1(C)C3
21
3. C=C[C@@]1(C)C[C@@H]1C(=O)CCC(O[Si](C)(C)C(C)(C)C)c1ccccc1I (some centres undefined)
80
4. COCO[C@H]1C[C@@H]2C[C@@H](O[Si](C)(C)C)C3[C@@H](C#N)CCC[C@]3(C)[C@]23CC[C@@]1(C)C3 (some centres undefined)
67

(a) C[C@]12CC[C@@]3(C1)c1ccccc1C(=O)C[C@H]3C[C@@H]2O
(b) CO[C@H]1C[C@@H]2CC(=O)C3=C(CCC[C@@]3(C)CO)[C@]23CC[C@@]1(C)C3
(c) COCO[C@H]1C[C@@H]2C[C@@H](O[Si](C)(C)C)C3[C@](C#N)(COCc4ccccc4)CCC[C@]3(C)[C@]23CC[C@@]1(C)C3 (some centres undefined)
(d) CC1=CCC(CC(O[Si](C)(C)C(C)(C)C)c2ccccc2I)C(=O)CC1 (centres undefined)
(e) CC1=CCC(CCO)C(=O)CC1 (centres undefined)
// ranking: key=inhibition, reverse=True Provide the labels, sequenced as the question asks.
d, c, e, b, a
(d: 95%, c: 52%, e: 34%, b: 8%, a: 0%)

###

- MEASURED_ON: Potassium-transporting ATPase (Sus scrofa) (UniProt P18434+P19156)
- EXPERIMENT_NOTES: Inhibition of procine gastric H+,K+-ATPase at 100 uM in vitro.
- Format: tissue-based
- ASSAY_CONTEXT: Stomach
RECORDED_ENDPOINT: inhibition (%)

1) C[C@]12CC[C@]3(C1)[C@H](CC2=O)C[C@@H](OC(=O)c1ccccc1)[C@H]1[C@](C)(C(=O)O)CCC[C@@]13C
62
2) CO[C@H]1C[C@@H]2C[C@@H]3OC(=O)c4cccc(c43)[C@]23CC[C@@]1(C)C3
55
3) C[C@]12C=CC3=CC(=O)c4ccccc4[C@@]3(CC1)C2
61
4) COC(=O)[C@]1(C)CCC[C@@]2(C)[C@H]1[C@H](OC(=O)c1ccccc1)C[C@H]1CC(=O)[C@@]3(C)CC[C@]12C3
81
5) C=C[C@@]1(C)C[C@@H]1C(=O)CCC(O)c1ccccc1I (some centres undefined)
63

(A) C=C1CCC(C)=CC[C@@H]1C[C@@H](O)C#CCCCC1OCCO1
(B) C=C1CCC(C)=CCC1CC(O[Si](C)(C)C(C)(C)C)c1ccccc1I (centres undefined)
Quick one: lower inhibition, A or B ? Lab log: write the label of the selected item as the result.
A
(A: 20%, B: 98%)

(1) C[C@]12CC[C@]3(C1)C(=CC(=O)c1ccccc13)C[C@@H]2O
(2) C=C1CCC(C)=CC[C@@H]1C[C@H](/C=C(\I)CCCC1OCCO1)O[Si](C)(C)C(C)(C)C
Just curious, which one has the larger inhibition reading, 1 or 2 ? Lab log: write the label of the selected item as the result.
2
(2: 93%, 1: 17%)
